System: MDA-MB-231 breast
Assay: NCI tumour cell line growth inhibition, 48 h; in the data active = GI50 below about 0.43 µM; inactive = the rest
Labels: Y (active), N (inactive)

{"compound": "CSC(=NC#N)S/C=C/C(=O)c1cccc2ccccc12", "category_label": "N"}
{"compound": "C=C1[C@@H](O)C[C@H]2C(C)(C)C[C@H](Cl)C[C@]2(C)[C@H]1C[C@H](O)[C@H]1CC(=O)NC1=O", "category_label": "Y"}
{"compound": "O=C(O)c1cc2cc(O)ccc2[nH]1", "category_label": "N"}
{"compound": "Cc1ccc(N(/C=C/C(=O)C(F)(F)F)CC(=O)c2ccc(Cl)c(Cl)c2)cc1", "category_label": "N"}
{"compound": "CCOc1ccc2c(c1)C(=O)c1c-2n(CCCN)c(=O)c2cc([N+](=O)[O-])ccc12", "category_label": "N"}
{"compound": "CC1=C/C(O)CC(=O)Cc2nc(co2)C(=O)N2CCC=C2C(=O)OC(C(C)C)C(C)/C=C\\C(=O)NC/C=C\\1 (stereo not given)", "category_label": "N"}
{"compound": "N=C1N=C(N)S/C1=C\\c1ccc2ncccc2c1", "category_label": "N"}
{"compound": "CC(=O)[O][Hg][CH2]C1(C)COC(C)([CH2][Hg][O]C(C)=O)CO1 (stereo not given)", "category_label": "N"}
{"compound": "CC(C)c1ccc(/C=N/N=C(N)N)cc1", "category_label": "N"}
{"compound": "C=C(CN(C)Cc1ccccc1)c1ccc(C(=O)Nc2ccccc2N)cc1", "category_label": "N"}
